measuredQuantity: melting point (°C)

>>> print(df.to_string())
                                    molecule  measuredquantity  reportedresult
 0  CN1C(=NC2CCCCC2)SCC1CC(=O)Nc1cc(F)cc(F)c1.Cl (stereo not shown)     melting point             240
 1  CN1C(=NC2CCCCCC2)SCC1C(=O)Nc1ccc(F)cc1.Cl (stereo not shown)     melting point           265.3
 2  CCCCN1C(=NC23CC4CC(CC(C4)C2)C3)SCC1CC(=O)Nc1ccc(C)cc1.Cl (stereo not shown)     melting point             164
 3  CC(C)(C)c1ccc(NC(=O)CC2CSC(=NC3CCCCC3)N2C2CCCCC2)cc1.Cl (stereo not shown)     melting point             244
 4  CCN1C(=NC2CCCCC2)SCC1CC(=O)Nc1ccc(Oc2ccccc2)cc1.Cl (stereo not shown)     melting point           160.3
 5  CC(C)c1ccc(NC(=O)CC2CSC(=NC3C4CC5CC(C4)CC3C5)N2C)cc1.Cl (stereo not shown)     melting point             245
 6  Cl.O=C(CC1CSC(=NC2CCCCC2)N1C1CCCCC1)Nc1cc(Cl)cc(Cl)c1 (stereo not shown)     melting point             202
 7  Cl.O=C(CC1CSC(=NC2CCCCC2)N1C1CC1)Nc1ccc(Oc2ccccc2)cc1 (stereo not shown)     melting point             195
 8  CN1C(=NC2CCCCCC2)SCC1C(=O)Nc1ccc(Br)cc1 (stereo not shown)     melting point           109.2
 9  CN1C(=NC2CCCCCC2)SCC1C(=O)Nc1ccc(F)c(F)c1 (stereo not shown)     melting point           209.6
10  CC(C)N1C(=NC23CC4CC(CC(C4)C2)C3)SCC1CC(=O)Nc1ccc(C(F)(F)F)cc1.Cl (stereo not shown)     melting point             246
